Recorded measurements of MIC, one per entry
Tested on: Streptococcus Pneumonia 5649
A number alone suffices; assume µg/mL.

CC[C@H]1OC(=O)[C@H](C)C(=O)[C@H](C)[C@@H](O[C@@H]2O[C@H](C)C[C@H](N(C)C)[C@H]2O)[C@](C)(OCC#Cc2ccc(-c3cccc(C(F)(F)F)c3)s2)C[C@@H](C)C(=O)[C@H](C)[C@H]2NC(=O)O[C@@]21C : 1

Consider the additional compound presented here.
Q: What MIC value was documented for this compound, CC[C@H]1OC(=O)[C@H](C)C(=O)[C@H](C)[C@@H](O[C@@H]2O[C@H](C)C[C@H](N(C)C)[C@H]2O)[C@](C)(OC/C=C/c2cnc(-c3cncs3)s2)C[C@@H](C)C(=O)[C@H](C)[C@H]2NC(=O)O[C@@]21C ?
A: 0.25

---

Recorded measurements of MIC, one per entry
Test system: Nocardia Asteroides ATCC9970
A number alone suffices; assume µg/mL.

The following compounds have reported results that may help.
CC[C@H]1OC(=O)[C@H](C)C(=O)[C@H](C)[C@@H](O[C@@H]2O[C@H](C)C[C@H](N(C)C)[C@H]2O)[C@](C)(OC/C=C/c2cncc(-c3cncc4ccccc34)c2)C[C@@H](C)C(=O)[C@H](C)[C@H]2NC(=O)O[C@@]21C : 0.05
CC[C@H]1OC(=O)[C@H](C)C(=O)[C@H](C)[C@@H](O[C@@H]2O[C@H](C)C[C@H](N(C)C)[C@H]2O)[C@](C)(OCC#Cc2ccc(-c3cccc(NC(C)=O)c3)s2)C[C@@H](C)C(=O)[C@H](C)[C@H]2NC(=O)O[C@@]21C : 0.1
CC[C@H]1OC(=O)[C@H](C)C(=O)[C@H](C)[C@@H](O[C@@H]2O[C@H](C)C[C@H](N(C)C)[C@H]2O)[C@](C)(OC/C=C/c2ccc(-c3cccc(F)c3)s2)C[C@@H](C)C(=O)[C@H](C)[C@H]2NC(=O)O[C@@]21C : 0.39

Consider the additional compound presented here.
Q: Given the entry CC[C@H]1OC(=O)[C@H](C)C(=O)[C@H](C)[C@@H](O[C@@H]2O[C@H](C)C[C@H](N(C)C)[C@H]2O)[C@](C)(OC/C=C/c2nc(-c3cccs3)cs2)C[C@@H](C)C(=O)[C@H](C)[C@H]2NC(=O)O[C@@]21C , what MIC was observed with Nocardia Asteroides ATCC9970?
A: 0.1

---

Recorded measurements of MIC, one per entry
System: Micrococcus luteus ATCC 9341
A complete answer gives the number and then names the unit.

The following compounds have reported results that may help.
CC[C@H]1OC(=O)[C@H](C)C(=O)[C@H](C)[C@@H](O[C@@H]2O[C@H](C)C[C@H](N(C)C)[C@H]2O)[C@](C)(OC/C=C/c2cnc(-c3cncnc3)s2)C[C@@H](C)C(=O)[C@H](C)[C@H]2NC(=O)O[C@@]21C : 0.01 mg/L
CC[C@H]1OC(=O)[C@H](C)C(=O)[C@H](C)[C@@H](O[C@@H]2O[C@H](C)C[C@H](N(C)C)[C@H]2O)[C@](C)(OCC#Cc2ccc(-c3cccc(OC)c3)s2)C[C@@H](C)C(=O)[C@H](C)[C@H]2NC(=O)O[C@@]21C : 0.01 mg/L
CCOC(=O)c1cncc(-c2ccc(C#CCO[C@]3(C)C[C@@H](C)C(=O)[C@H](C)[C@H]4NC(=O)O[C@]4(C)[C@@H](CC)OC(=O)[C@H](C)C(=O)[C@H](C)[C@H]3O[C@@H]3O[C@H](C)C[C@H](N(C)C)[C@H]3O)s2)c1 : 0.01 mg/L
CC[C@H]1OC(=O)[C@H](C)C(=O)[C@H](C)[C@@H](O[C@@H]2O[C@H](C)C[C@H](N(C)C)[C@H]2O)[C@](C)(OC/C=C/c2ncc(-c3cccnc3)s2)C[C@@H](C)C(=O)[C@H](C)[C@H]2NC(=O)O[C@@]21C : 0.01 mg/L
CC[C@H]1OC(=O)[C@H](C)C(=O)[C@H](C)[C@@H](O[C@@H]2O[C@H](C)C[C@H](N(C)C)[C@H]2O)[C@](C)(OCC#Cc2ccc(-c3cccs3)s2)C[C@@H](C)C(=O)[C@H](C)[C@H]2NC(=O)O[C@@]21C : 0.05 mg/L

Q: Given the entry CC[C@H]1OC(=O)[C@H](C)C(=O)[C@H](C)[C@@H](O[C@@H]2O[C@H](C)C[C@H](N(C)C)[C@H]2O)[C@](C)(OC/C=C/c2ccc(-c3ccc(Cl)c(Cl)c3)s2)C[C@@H](C)C(=O)[C@H](C)[C@H]2NC(=O)O[C@@]21C , what MIC was observed with Micrococcus luteus ATCC 9341?
A: 0.39 mg/L

Q: Given the entry CC[C@H]1OC(=O)[C@H](C)C(=O)[C@H](C)[C@@H](O[C@@H]2O[C@H](C)C[C@H](N(C)C)[C@H]2O)[C@](C)(OCC#Cc2ccc(-c3cccc(Cl)c3)s2)C[C@@H](C)C(=O)[C@H](C)[C@H]2NC(=O)O[C@@]21C , what MIC was observed with Micrococcus luteus ATCC 9341?
A: 0.02 mg/L

Q: Given the entry CC[C@H]1OC(=O)[C@H](C)C(=O)[C@H](C)[C@@H](O[C@@H]2O[C@H](C)C[C@H](N(C)C)[C@H]2O)[C@](C)(OC/C=C/c2ccc(-c3cncnc3)s2)C[C@@H](C)C(=O)[C@H](C)[C@H]2NC(=O)O[C@@]21C , what MIC was observed with Micrococcus luteus ATCC 9341?
A: 0.02 mg/L

Q: Given the entry CC[C@H]1OC(=O)[C@H](C)C(=O)[C@H](C)[C@@H](O[C@@H]2O[C@H](C)C[C@H](N(C)C)[C@H]2O)[C@](C)(OCC#Cc2ccc(-c3ccc(F)cc3)s2)C[C@@H](C)C(=O)[C@H](C)[C@H]2NC(=O)O[C@@]21C , what MIC was observed with Micrococcus luteus ATCC 9341?
A: 0.39 mg/L

Q: Given the entry CC[C@H]1OC(=O)[C@H](C)C(=O)[C@H](C)[C@@H](O[C@@H]2O[C@H](C)C[C@H](N(C)C)[C@H]2O)[C@](C)(OC/C=C/c2ccc(-c3ccsc3)s2)C[C@@H](C)C(=O)[C@H](C)[C@H]2NC(=O)O[C@@]21C , what MIC was observed with Micrococcus luteus ATCC 9341?
A: 0.05 mg/L

---

Tested on: Streptococcus Pneumonia 5979
Readout kind: MIC (µg/mL)
A number alone suffices; assume µg/mL.

The following molecules have reported results that may help.
CC[C@H]1OC(=O)[C@H](C)C(=O)[C@H](C)[C@@H](O[C@@H]2O[C@H](C)C[C@H](N(C)C)[C@H]2O)[C@](C)(OCC#Cc2ccc(-c3cccc(OC)c3)s2)C[C@@H](C)C(=O)[C@H](C)[C@H]2NC(=O)O[C@@]21C [Example 14] : 1
CC[C@H]1OC(=O)[C@H](C)C(=O)[C@H](C)[C@@H](O[C@@H]2O[C@H](C)C[C@H](N(C)C)[C@H]2O)[C@](C)(OC/C=C/c2ccc(-c3cncnc3)s2)C[C@@H](C)C(=O)[C@H](C)[C@H]2NC(=O)O[C@@]21C [Example 70] : 4

Q: Given the entry CC[C@H]1OC(=O)[C@H](C)C(=O)[C@H](C)[C@@H](O[C@@H]2O[C@H](C)C[C@H](N(C)C)[C@H]2O)[C@](C)(OC/C=C/c2cnc(-c3cncs3)s2)C[C@@H](C)C(=O)[C@H](C)[C@H]2NC(=O)O[C@@]21C [Example 60] , what MIC was observed with Streptococcus Pneumonia 5979?
A: 1

---

List of MIC tested on Micrococcus luteus ATCC 9341.
A number alone suffices; assume µg/mL.

CC[C@H]1OC(=O)[C@H](C)C(=O)[C@H](C)[C@@H](O[C@@H]2O[C@H](C)C[C@H](N(C)C)[C@H]2O)[C@](C)(OC/C=C/c2cnc(-c3cccnc3)s2)C[C@@H](C)C(=O)[C@H](C)[C@H]2NC(=O)O[C@@]21C : 0.02

Consider the additional molecule presented here.
Q: Given the entry CC[C@H]1OC(=O)[C@H](C)C(=O)[C@H](C)[C@@H](O[C@@H]2O[C@H](C)C[C@H](N(C)C)[C@H]2O)[C@](C)(OC/C=C/c2cncc(-c3cncc4ccccc34)c2)C[C@@H](C)C(=O)[C@H](C)[C@H]2NC(=O)O[C@@]21C , what MIC was observed with Micrococcus luteus ATCC 9341?
A: 0.05

---

List of MIC tested on Streptococcus Pneumonia 5979.
A number alone suffices; assume µg/mL.

The following molecules have reported results that may help.
CC[C@H]1OC(=O)[C@H](C)C(=O)[C@H](C)[C@@H](O[C@@H]2O[C@H](C)C[C@H](N(C)C)[C@H]2O)[C@](C)(OCC#Cc2ccc(-c3ccco3)s2)C[C@@H](C)C(=O)[C@H](C)[C@H]2NC(=O)O[C@@]21C : 8
CC[C@H]1OC(=O)[C@H](C)C(=O)[C@H](C)[C@@H](O[C@@H]2O[C@H](C)C[C@H](N(C)C)[C@H]2O)[C@](C)(OC/C=C/c2ccc(-c3ccsc3)s2)C[C@@H](C)C(=O)[C@H](C)[C@H]2NC(=O)O[C@@]21C : 16

Consider the additional molecule presented here.
Q: Given the entry CC[C@H]1OC(=O)[C@H](C)C(=O)[C@H](C)[C@@H](O[C@@H]2O[C@H](C)C[C@H](N(C)C)[C@H]2O)[C@](C)(OCC#Cc2ccc(-c3cccc(NC(C)=O)c3)s2)C[C@@H](C)C(=O)[C@H](C)[C@H]2NC(=O)O[C@@]21C , what MIC was observed with Streptococcus Pneumonia 5979?
A: 0.5
